Below, each entry is listed with its recorded EC50.
target: Recombinant human CD33 protein (Homo sapiens (Human)); experiment: CD33 competitive binding assay for HTS drug screen (fluorescent multivalent sialic acid probe)
Sequence (P20138 18-259): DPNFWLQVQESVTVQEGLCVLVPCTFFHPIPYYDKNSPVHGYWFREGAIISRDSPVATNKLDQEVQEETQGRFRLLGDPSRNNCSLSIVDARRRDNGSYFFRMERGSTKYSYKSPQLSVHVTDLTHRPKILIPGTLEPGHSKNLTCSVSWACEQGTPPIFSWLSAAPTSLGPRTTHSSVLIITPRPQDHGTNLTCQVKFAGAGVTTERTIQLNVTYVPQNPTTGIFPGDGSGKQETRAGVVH
observable: EC50 (nM)

>>> result_number("CC(=O)N[C@H]1[C@H]([C@H](O)[C@H](O)CNC(=O)c2ccc3[nH]nc(C)c3c2)O[C@@](CCN2CCOC[C@@]23CCN(C(=O)OC(C)(C)C)C3)(C(=O)O)C[C@@H]1O [A-125]")
23
>>> result_number("CC(=O)N[C@H]1[C@H]([C@H](O)[C@H](O)CNC(=O)c2cc(C)c(O)c(C)c2)O[C@@](C/C=C/c2cccc(CNC(=O)C3CCC[C@H](Nc4ncccn4)C3)c2)(C(=O)O)C[C@@H]1O (stereo partly shown) [A-256]")
2170
>>> result_number("CC(=O)N[C@H]1[C@H]([C@H](O)[C@H](O)CNC(=O)c2cc(C)c(O)c(C)c2)O[C@@](CCN2CCOC[C@@]23CCN(C(=O)COCC(C)C)C3)(C(=O)O)C[C@@H]1O [A-083]")
1000
>>> result_number("CC(=O)N[C@H]1[C@H]([C@H](O)[C@H](O)CNC(=O)c2cc(C)c(O)c(C)c2)O[C@@](CCN2CCNC[C@]23CCN(C(=O)NC(C)(C)C)C3)(C(=O)O)C[C@@H]1O [A-107]")
379
>>> result_number("CC(=O)N[C@H]1[C@H]2O[C@](C(=O)O)(CCCc3cccc(c3)[C@@H](NC(=O)C3CCCOC3)CCCCc3cc(cc(Cl)c3O)C(=O)NC[C@@H](O)[C@H]2O)C[C@@H]1O (stereo partly shown) [A-351]")
15000
>>> result_number("CC(=O)N[C@H]1[C@H]([C@H](O)[C@H](O)CNC(=O)c2cc(C)c(O)c(C)c2)O[C@@](C/C=C/c2cccc(CNC(=O)c3cccc(NCc4nc(C)cs4)c3)c2)(C(=O)O)C[C@@H]1O [A-245]")
9460
>>> result_number("CC(=O)N[C@H]1[C@H]([C@H](O)[C@H](O)CNC(=O)c2cc(C)c(O)c(C)c2)O[C@@](CCN2CCOC[C@@]23CCN(C(=O)C(C)C2CCCCC2)C3)(C(=O)O)C[C@@H]1O (stereo partly shown) [A-076]")
226
>>> result_number("CC(=O)N[C@H]1[C@H]([C@H](O)[C@H](O)CNC(=O)c2cc(C)c(O)c(C)c2)O[C@@](C/C=C/c2cccc(CNC(=O)C3CCCOC3)c2)(C(=O)O)C[C@@H]1O (stereo partly shown) [A-293]")
7940
>>> result_number("CC(=O)N[C@H]1[C@H]([C@H](O)[C@H](O)CNC(=O)c2cc(C)c(N)c(C)c2)O[C@@](CCN2CCOC[C@@]23CCN(C(=O)OC(C)(C)C)C3)(C(=O)O)C[C@@H]1O [A-119]")
17
>>> result_number("Cc1cc2cc(C)c1OCCCNC(=O)[C@H](C)COCCCC[C@]1(C(=O)O)C[C@H](O)[C@@H](NC(=O)Cn3cc(C4CCCCC4)nn3)[C@@H](O1)[C@H](O)[C@H](O)CNC2=O [A-359]")
59800
>>> result_number("Cc1cc(C(=O)NC[C@@H](O)[C@@H](O)[C@@H]2O[C@@](OC3CCCCC3NC(=O)Cn3cc(-c4ccccc4)nn3)(C(=O)O)C[C@H](O)[C@H]2NC(=O)Cn2cc(C3CCCCC3)nn2)cc(C)c1O (stereo partly shown) [A-333]")
12200
>>> result_number("COc1cc(C(=O)NC[C@@H](O)[C@@H](O)[C@@H]2O[C@@](CCN3CCOC[C@@]34CCN(C(=O)OC(C)(C)C)C4)(C(=O)O)C[C@H](O)[C@H]2NC(C)=O)cc(OC)c1O [A-123]")
68
>>> result_number("CC(=O)N[C@H]1[C@H]([C@H](O)[C@H](O)CNC(=O)c2cc(C)n(C)n2)O[C@@](CCN2CCOC[C@@]23CCN(C(=O)OC(C)(C)C)C3)(C(=O)O)C[C@@H]1O [A-154]")
137
>>> result_number("CC(=O)N[C@H]1[C@H]([C@H](O)[C@H](O)CNC(=O)c2cccc(Br)c2)O[C@@](CCN2CCOC[C@@]23CCN(C(=O)OC(C)(C)C)C3)(C(=O)O)C[C@@H]1O [A-116]")
42
>>> result_number("CC(=O)N[C@H]1[C@H]([C@H](O)[C@H](O)CNC(=O)c2cc(C)c(O)c(C)c2)O[C@@](C/C=C/c2ccccc2CNC(=O)C2CCCOC2)(C(=O)O)C[C@@H]1O (stereo partly shown) [A-233]")
8990
>>> result_number("CC(=O)NC1[C@H]([C@H](O)[C@H](O)CNC(=O)c2cc(C)c(O)c(C)c2)O[C@@](CC(=O)N2CCOC[C@]23CCN(C(=O)OC(C)(C)C)C3)(C(=O)O)C[C@@H]1O (stereo partly shown) [A-220]")
55
>>> result_number("CC(=O)N[C@H]1[C@H]([C@H](O)[C@H](O)CNC(=O)c2cc(C)c(O)c(C)c2)O[C@@](CC2OC(C)(C)O[C@H]2c2ccc(C)c(N3CCCC3=O)c2)(C(=O)O)C[C@@H]1O (stereo partly shown) [A-319]")
4220
>>> result_number("CC(=O)N[C@H]1[C@H]([C@H](O)[C@H](O)CNC(=O)c2cc(C)c(O)c(C)c2)O[C@@](C[C@H]2COCC3(CCN(C(=O)OC(C)(C)C)CC3)N2)(C(=O)O)C[C@@H]1O [A-231]")
1410
>>> result_number("Cc1cc(C(=O)NCC(O)C[C@@H]2O[C@@](CCN3CCOC[C@@]34CCN(C(=O)OC(C)(C)C)C4)(C(=O)O)CCC2C)cc(C)c1O (single isomer, unassigned) [A-215]")
60400

Where do these numbers come from? They come from patent US20250313574A1.
